Listed here are variants together with their documented polymerase ribozyme fitness (log ratio).
B1: TPR 5TU (parent)
chain: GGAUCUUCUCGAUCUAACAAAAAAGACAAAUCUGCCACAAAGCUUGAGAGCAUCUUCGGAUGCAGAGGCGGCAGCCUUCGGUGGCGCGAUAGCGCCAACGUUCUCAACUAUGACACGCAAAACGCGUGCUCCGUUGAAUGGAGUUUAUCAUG

Variants of: B1
procedure text: polymerase ribozyme fitness, log enrichment relative to wild type (log ratio); higher = more active; in vitro selection for triplet polymerase activity
Fewer inactive variants are shown than the library holds.

- variant name: "G74C C76A C87U C114U C116U"
  polymerase ribozyme fitness (log ratio): "≤ -4.2"
- variant name: "U13C G58U G94U C95U A142G U144G"
  polymerase ribozyme fitness (log ratio): -4.05
- variant name: "A40G C105U A115U A138G"
  polymerase ribozyme fitness (log ratio): "≤ -4.2"
- variant name: "U4G A19C G58U C69U C96A"
  polymerase ribozyme fitness (log ratio): -0.414
- variant name: "A37G A41C G71A U90A C96U"
  polymerase ribozyme fitness (log ratio): "≤ -4.2"
- variant name: "U15C C38U A49G C103G G141U"
  polymerase ribozyme fitness (log ratio): "≤ -4.2"
- variant name: "C14A A17U A24C C57U G58C C87A"
  polymerase ribozyme fitness (log ratio): "≤ -4.2"
- variant name: "G11A A26C U90G"
  polymerase ribozyme fitness (log ratio): "≤ -4.2"
- variant name: "A16G C43A U53C G70A A73G"
  polymerase ribozyme fitness (log ratio): "≤ -4.2"
- variant name: "A12U A91U"
  polymerase ribozyme fitness (log ratio): "≤ -4.2"
- variant name: "U31A U45A A47C C93U C99G U135A"
  polymerase ribozyme fitness (log ratio): "≤ -4.2"
